Test system: SK-MEL-2
Assay: NCI tumour cell line growth inhibition, 48 h
Activity calls are given as the source filed them. Rule as the data show it: active = GI50 up to about 1.1 µM and inactive = higher.
We begin with a simple list: items and their reported GI50.

These solved cases illustrate the format of a correct answer.
Given the compound `O=[N+]([O-])c1ccc(S(=O)(=O)N=Ic2ccccc2)cc1` and test system SK-MEL-2, the measured GI50 is > 100 µM (inactive)

Given the compound `Cc1cccc(C(C)(C)C)c1NC(=O)CCl` and test system SK-MEL-2, the measured GI50 is > 100 µM (inactive)

Given the compound `N#Cc1cnn2cc[nH]c12` and test system SK-MEL-2, the measured GI50 is > 100 µM (inactive)

Now for a further compound.
Given the compound [N-]=[N+]=NC1(Cc2ccccc2)C(=O)c2cccc3c2N(CCC3)C1=O (stereo unspecified) and test system SK-MEL-2, the measured GI50 is > 100 µM (inactive)

These measurements were taken from ChEMBL document CHEMBL1201862.
